molecular target: pooled human IgG (human); experiment: cell-based or functional assay; note: test concentration or dose not given here
Consider the following binders; for each one, report its Enzyme Activity Endpoint Assay (purified): IgG.
Answers are plain numbers, in ng/µL.

binder="PRT-208 (enzyme) MEVVEVWPYGQNPNGKTEILSQTEDSESLQRLRDIEDFQAEKKKENVVYTKWLDGVTVKDHDFRKIVDGNIAYYATPLLNGRGFYDINKDFNRDSDKCAAAVAANMFHYWLDINRDNVDRFLRQNPEKHGIIELPDGQLKLSDFLNTYESDDGYRDKSKLFDFISNNFNGPVWTDKLLDNYINGYGYNYKYGRTIEDPTKNTSKINFFKEVFNEKILTDNHSIRDQNEFSDLLSEALYTGKAIGLSYGPAGLRHSLGHIISVWGADLDADGNVVAIYVTDSDDKKLTIGDERVGLKRYKISYDDEGRARLTAYEEKDNTGGQIRGLWTLDTGKQAWADYFDKTEQTGTDQAEQLEHHHHHH" readout_units=ng/µL assay_result=1700

Lab note: next binder to report on.
Looking up PRT-201 (enzyme) MEVVEVWPYGQNPNGKTEILSQTEDSESLQRLRDIEDFQAEKKKQNVVYTKWLDGVDVKDHDFRKIKDGNIEYYATPLLNGRGFYDINKDFNRDSDKCAAAVAANMFHYWLDRNRDNVDRFLRQNPEKHGIIELPDGQLKLSDFLNTYESDDGYRDKSKLFDFISNNFNGPVWTDKLLDNYINGYAYNYKYGRTIEDPTKNTSKINFFKEVFNEKILTNNHSIRNQNEFSVLLSEALYTGKAIGLSYGPAGLRHSLGHIISVWGADLDADGNVVAIYVTDSDDKKLTIGDERVGLKRYKISTDDEGRARLTAYEETHNTGGQIRGLYTLDTGKQAWADYFDKTEQTGTDQAEQLEHHHHHH , I see its Enzyme Activity Endpoint Assay (purified): IgG listed as 2720
